Origin of measurements: PubChem BioAssay AID2060488

system: 966289-007-R4-J1-PDC complex spheroid viability; assay: Anticancer human tumor 966289-007-R4-J1-PDC patient-derived pancreatic adenocarcinoma cell line growth inhibition [GQUAD]; settings: second compound 1 µM; first compound 0.0316 µM; hits give low values
Consider the cut-off 10%. If the recorded viability, T/C is strictly smaller, the label is Yes; if not, the label is No.

*Q* Please check: viability, T/C for O=C(c1cc(Cc2n[nH]c(=O)c3ccccc23)ccc1F)N1CCN(C(=O)C2CC2)CC1 + CN(C)c1ccc(Nc2c3ccc(NC(=O)CCN4CCCC4)cc3nc3cc(NC(=O)CCN4CCCC4)ccc23)cc1 , strictly under 10% or not?
*A* No

*Q* Please check: viability, T/C for COc1cc(C2c3cc4c(cc3C(OC3OC5COC(C)OC5C(O)C3O)C3COC(=O)C23)OCO4)cc(OC)c1O (stereo not given) + Cc1[nH]c2ccc(F)cc2c1-c1nc2c3cccnc3c3ncccc3c2[nH]1 , strictly under 10% or not?
*A* No

More entries:
*Q* Please check: viability, T/C for O=C(c1cc(Cc2n[nH]c(=O)c3ccccc23)ccc1F)N1CCN(C(=O)C2CC2)CC1 + Cc1cnc(CNC(=O)c2c(=O)c3ccc(N4CCCN(C)CC4)nc3n3c2sc2ccccc23)cn1 , strictly under 10% or not?
*A* Yes

*Q* Please check: viability, T/C for Cc1[nH]c2ccccc2c1CCNCc1ccc(/C=C/C(=O)NO)cc1 + CN(C)c1ccc(Nc2c3ccc(NC(=O)CCN4CCCC4)cc3nc3cc(NC(=O)CCN4CCCC4)ccc23)cc1 , strictly under 10% or not?
*A* No

*Q* Please check: viability, T/C for Nc1ccn(C2OC(CO)C(O)C2(F)F)c(=O)n1 (stereo not given) + Cc1cnc(CNC(=O)c2c(=O)c3ccc(N4CCCN(C)CC4)nc3n3c2sc2ccccc23)cn1 , strictly under 10% or not?
*A* Yes

*Q* Please check: viability, T/C for CC(=O)O[C@H]1C(=O)[C@@]2(C)[C@H]([C@H](OC(=O)c3ccccc3)[C@]3(O)C[C@H](OC(=O)[C@H](O)[C@@H](NC(=O)c4ccccc4)c4ccccc4)C(C)=C1C3(C)C)[C@]1(OC(C)=O)CO[C@@H]1C[C@@H]2O + CN(C)c1ccc(Nc2c3ccc(NC(=O)CCN4CCCC4)cc3nc3cc(NC(=O)CCN4CCCC4)ccc23)cc1 , strictly under 10% or not?
*A* Yes

*Q* Please check: viability, T/C for CC1COCCN1c1cc(C2(S(C)(=N)=O)CC2)nc(-c2ccnc3[nH]ccc23)n1 (stereo not given) + Cc1cnc(CNC(=O)c2c(=O)c3ccc(N4CCCN(C)CC4)nc3n3c2sc2ccccc23)cn1 , strictly under 10% or not?
*A* Yes

*Q* Please check: viability, T/C for CC[C@@]1(O)C(=O)OCc2c1cc1n(c2=O)Cc2cc3c(CN(C)C)c(O)ccc3nc2-1 + Cc1cnc(CNC(=O)c2c(=O)c3ccc(N4CCCN(C)CC4)nc3n3c2sc2ccccc23)cn1 , strictly under 10% or not?
*A* Yes

*Q* Please check: viability, T/C for O=C(NO)c1cnc(N2CCN(S(=O)(=O)c3ccc4ccccc4c3)CC2)nc1 + Cc1cnc(CNC(=O)c2c(=O)c3ccc(N4CCCN(C)CC4)nc3n3c2sc2ccccc23)cn1 , strictly under 10% or not?
*A* Yes

###

Tested on: 966289-007-R4-J1-PDC complex spheroid viability
Test: Anticancer human tumor 966289-007-R4-J1-PDC cell line growth inhibition [GQUAD];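 further: spheroids exposed to the agents for seven days before readout; percent viability relative to DMSO vehicle control wells taken as 100%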
Conditions: second compound 0.0316 µM; first compound 0.0316 µM; hits give low values
Source text: DNA G-quadruplex Stabilizer Agents in Combinations in Complex Spheroids A high-throughput screen of multi-cell type tumor spheroids was designed to identify active combinations of DNA G-quadruplex stabilizer agents and targeted small molecules. […] Compounds. […] If the clinical Cmax for an agent had not been determined, the highest concentration tested was 10 microM. […]
endpoint label: viability, T/C (%)
Give bare numbers, in %.

Sample answers from the record:
*Q* Would you mind telling me what viability, T/C value was observed for COc1cc(C2c3cc4c(cc3C(OC3OC5COC(C)OC5C(O)C3O)C3COC(=O)C23)OCO4)cc(OC)c1O (stereo not given) + CN(C)c1ccc(Nc2c3ccc(NC(=O)CCN4CCCC4)cc3nc3cc(NC(=O)CCN4CCCC4)ccc23)cc1 ?
*A* 115

*Q* Would you mind telling me what viability, T/C value was observed for CC(C)(O)C1CCC(Nc2ccc3ncc(-c4cccc(C(F)(F)F)c4)n3n2)CC1 (stereo not given) + Cc1[nH]c2ccc(F)cc2c1-c1nc2c3cccnc3c3ncccc3c2[nH]1 ?
*A* 108

*Q* Would you mind telling me what viability, T/C value was observed for O=C(c1cc(Cc2n[nH]c(=O)c3ccccc23)ccc1F)N1CCN(C(=O)C2CC2)CC1 + Cc1cnc(CNC(=O)c2c(=O)c3ccc(N4CCCN(C)CC4)nc3n3c2sc2ccccc23)cn1 ?
*A* 113

*Q* Would you mind telling me what viability, T/C value was observed for CC[C@@]1(O)C(=O)OCc2c1cc1n(c2=O)Cc2cc3c(CN(C)C)c(O)ccc3nc2-1 + Cc1[nH]c2ccc(F)cc2c1-c1nc2c3cccnc3c3ncccc3c2[nH]1 ?
*A* 70.8

Please examine the following record next.
*Q* Would you mind telling me what viability, T/C value was observed for CC[C@@]1(O)C(=O)OCc2c1cc1n(c2=O)Cc2cc3c(CN(C)C)c(O)ccc3nc2-1 + CN(C)c1ccc(Nc2c3ccc(NC(=O)CCN4CCCC4)cc3nc3cc(NC(=O)CCN4CCCC4)ccc23)cc1 ?
*A* 82.1

###

Tested on: 966289-007-R4-J1-PDC complex spheroid viability
Experiment: Anticancer human tumor 966289-007-R4-J1-PDC cell line growth inhibition [GQUAD]; active = viability on the fitted dose curve at most 10% of control; inactive = the rest;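 further: spheroids exposed to the agents for seven days before readout; percent viability relative to DMSO vehicle control wells taken as 100%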
Conditions: second compound 3.16 µM; first compound 0.0999 µM
Source text: DNA G-quadruplex Stabilizer Agents in Combinations in Complex Spheroids A high-throughput screen of multi-cell type tumor spheroids was designed to identify active combinations of DNA G-quadruplex stabilizer agents and targeted small molecules. […] Compounds. […] If the clinical Cmax for an agent had not been determined, the highest concentration tested was 10 microM. […]
The categories you may choose from are active, inactive

*Q* Outcome? Cc1[nH]c2ccccc2c1CCNCc1ccc(/C=C/C(=O)NO)cc1 + Cc1[nH]c2ccc(F)cc2c1-c1nc2c3cccnc3c3ncccc3c2[nH]1
*A* inactive

*Q* Outcome? CC[C@@]1(O)C(=O)OCc2c1cc1n(c2=O)Cc2cc3c(CN(C)C)c(O)ccc3nc2-1 + Cc1[nH]c2ccc(F)cc2c1-c1nc2c3cccnc3c3ncccc3c2[nH]1
*A* active

*Q* Outcome? Cc1[nH]c2ccccc2c1CCNCc1ccc(/C=C/C(=O)NO)cc1 + CN(C)c1ccc(Nc2c3ccc(NC(=O)CCN4CCCC4)cc3nc3cc(NC(=O)CCN4CCCC4)ccc23)cc1
*A* inactive

*Q* Outcome? Cc1[nH]c2ccccc2c1CCNCc1ccc(/C=C/C(=O)NO)cc1 + Cc1cnc(CNC(=O)c2c(=O)c3ccc(N4CCCN(C)CC4)nc3n3c2sc2ccccc23)cn1
*A* active

*Q* Outcome? Cn1ncnc1[C@H]1c2n[nH]c(=O)c3cc(F)cc(c23)N[C@@H]1c1ccc(F)cc1 + Cc1[nH]c2ccc(F)cc2c1-c1nc2c3cccnc3c3ncccc3c2[nH]1
*A* inactive

More entries:
*Q* Outcome? CCc1c2c(nc3ccc(O)cc13)-c1cc3c(c(=O)n1C2)COC(=O)[C@]3(O)CC + Cc1[nH]c2ccc(F)cc2c1-c1nc2c3cccnc3c3ncccc3c2[nH]1
*A* active

*Q* Outcome? CC[C@@]1(O)C(=O)OCc2c1cc1n(c2=O)Cc2cc3c(CN(C)C)c(O)ccc3nc2-1 + CN(C)c1ccc(Nc2c3ccc(NC(=O)CCN4CCCC4)cc3nc3cc(NC(=O)CCN4CCCC4)ccc23)cc1
*A* active

*Q* Outcome? CCc1c2c(nc3ccc(O)cc13)-c1cc3c(c(=O)n1C2)COC(=O)[C@]3(O)CC + Cc1cnc(CNC(=O)c2c(=O)c3ccc(N4CCCN(C)CC4)nc3n3c2sc2ccccc23)cn1
*A* active

*Q* Outcome? CC[C@@]1(O)C(=O)OCc2c1cc1n(c2=O)Cc2cc3c(CN(C)C)c(O)ccc3nc2-1 + Cc1cnc(CNC(=O)c2c(=O)c3ccc(N4CCCN(C)CC4)nc3n3c2sc2ccccc23)cn1
*A* active

*Q* Outcome? Cn1ncnc1[C@H]1c2n[nH]c(=O)c3cc(F)cc(c23)N[C@@H]1c1ccc(F)cc1 + CN(C)c1ccc(Nc2c3ccc(NC(=O)CCN4CCCC4)cc3nc3cc(NC(=O)CCN4CCCC4)ccc23)cc1
*A* inactive

*Q* Outcome? Cn1ncnc1[C@H]1c2n[nH]c(=O)c3cc(F)cc(c23)N[C@@H]1c1ccc(F)cc1 + Cc1cnc(CNC(=O)c2c(=O)c3ccc(N4CCCN(C)CC4)nc3n3c2sc2ccccc23)cn1
*A* active

*Q* Outcome? CCc1c2c(nc3ccc(O)cc13)-c1cc3c(c(=O)n1C2)COC(=O)[C@]3(O)CC + CN(C)c1ccc(Nc2c3ccc(NC(=O)CCN4CCCC4)cc3nc3cc(NC(=O)CCN4CCCC4)ccc23)cc1
*A* active
